# System: CCRIS mutagenicity, Ames/micronucleus/aberration tests
# Method description: CCRIS mutagenicity studies
# Applied conditions: Test System: AMES SALMONELLA TYPHIMURIUM; Strain/Indicator: TA98(1,8-DNP6); Metabolic Activation: NONE; Method: STANDARD PLATE
# Description: The CCRIS database contains chemical records with carcinogenicity, mutagenicity, tumor promotion, and tumor inhibition test results. It was developed by the National Cancer Institute (NCI). Data are derived from studies cited in primary journals, current awareness tools, NCI reports, and other sources. Test results have been reviewed by experts in carcinogenesis and mutagenesis. CCRIS provides historical information from the years 1985 - 2011. It is no longer updated. […]
The source made the active and inactive calls. No rule for the calls is given here.
Could you please pick one outcome from this set? True for active, False for inactive

Sample answers from the record:
Nc1ccc(/C=C/c2ccc(Cl)cc2)cc1: False
O=[N+]([O-])c1ccc2c([N+](=O)[O-])cc3ccccc3c2c1: True
O=C(Nc1ccccc1)c1csc([N+](=O)[O-])c1: True
Cn1c(N=[N+]=[N-])nc2c3ccccc3ccc21: True
O=C(O)c1ccc([N+](=O)[O-])o1: False
O=[N+]([O-])c1cc2c3c(c1)CCc1cc([N+](=O)[O-])cc(c1-3)CC2: True
CN(C)CCCNc1c2ccccc2nc2c([N+](=O)[O-])cccc12: True

Next item in the queue.
How was O=[N+]([O-])c1cccc2c1c([N+](=O)[O-])cc1ccccc12 classified in this test? True
